tested_target: JAK2V617F (Homo sapiens, UniProt O60674, V617F)
Sequence (O60674 whole entry V617F): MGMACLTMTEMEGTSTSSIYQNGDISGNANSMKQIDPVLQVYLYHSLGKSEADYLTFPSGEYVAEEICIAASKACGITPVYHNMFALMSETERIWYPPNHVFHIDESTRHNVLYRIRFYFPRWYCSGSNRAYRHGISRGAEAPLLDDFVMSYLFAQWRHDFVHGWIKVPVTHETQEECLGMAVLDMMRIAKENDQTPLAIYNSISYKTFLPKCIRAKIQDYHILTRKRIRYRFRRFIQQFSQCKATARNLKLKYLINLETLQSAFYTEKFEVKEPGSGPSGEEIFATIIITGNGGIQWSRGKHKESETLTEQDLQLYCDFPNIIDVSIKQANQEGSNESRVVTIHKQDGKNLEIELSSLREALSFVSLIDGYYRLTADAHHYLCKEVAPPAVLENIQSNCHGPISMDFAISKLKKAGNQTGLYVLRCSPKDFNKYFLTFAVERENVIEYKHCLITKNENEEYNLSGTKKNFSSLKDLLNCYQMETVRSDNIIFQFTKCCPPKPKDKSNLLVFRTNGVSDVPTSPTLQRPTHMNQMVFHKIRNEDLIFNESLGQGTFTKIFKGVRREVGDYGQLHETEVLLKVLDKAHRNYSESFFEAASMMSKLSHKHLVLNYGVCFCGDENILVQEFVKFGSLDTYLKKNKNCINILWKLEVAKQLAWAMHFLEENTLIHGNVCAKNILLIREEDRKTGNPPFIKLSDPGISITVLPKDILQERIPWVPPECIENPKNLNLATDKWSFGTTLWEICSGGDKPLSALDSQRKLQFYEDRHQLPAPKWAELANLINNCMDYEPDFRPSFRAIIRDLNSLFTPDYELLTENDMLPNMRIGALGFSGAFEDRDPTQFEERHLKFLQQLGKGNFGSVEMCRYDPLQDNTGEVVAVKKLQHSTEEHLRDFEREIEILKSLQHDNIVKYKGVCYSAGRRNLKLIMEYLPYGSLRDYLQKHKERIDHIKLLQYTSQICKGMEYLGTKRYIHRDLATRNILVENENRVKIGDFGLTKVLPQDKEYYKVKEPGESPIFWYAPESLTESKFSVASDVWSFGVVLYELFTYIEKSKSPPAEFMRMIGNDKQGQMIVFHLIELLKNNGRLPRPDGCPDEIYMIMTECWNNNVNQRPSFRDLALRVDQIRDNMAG
assay_explanation: JAK2V617F microfluidic kinase assay (Caliper EZ Reader II, FAM labeled peptide substrate)
test_conditions: JAK2V617F 2.5 nM, 1 mM ATP
pIC50: −log10 of the molar value.
readout_label: pIC50

(P) Cc1cnc(Nc2cnn(C3CC3)c2)nc1-c1ccc(C(=O)N[C@@H](C)C#N)nc1
(Q) Cc1cnc(Nc2cnn(C3CC3)c2)nc1-c1ccc(C(=O)N[C@@H](C)C#N)cc1
Query :: Look at P and Q . Which one has the lower recorded pIC50 number? Give the label of your selection.
Result :: P
(P: 6.85, Q: 7.48)

(P) Cn1cc(Nc2ncc(Cl)c(-c3ccc(C(=O)NCC(C)(C)C#N)cc3)n2)cn1
(Q) C[C@@H](C#N)NC(=O)c1ccc(-c2nc(Nc3cnn(CC#N)c3)ncc2F)cc1
(R) Cc1cnc(Nc2cnn(C3CCN(C(=O)C4CC4)CC3)c2)nc1-c1ccc(C(=O)NCC#N)nc1
Query :: Let's sort these by pIC50, smallest first. Go ahead? Hello, could you send the labels back in the order asked? Thank you.
Result :: Q, P, R
